experiment: Confirmatory Assay for Inhibitors of Human Galactokinase (GALK): Phenol-HRP redox assay counterscreen for probe SAR; details: Phenol red-HRP H2O2 redox cycling, absorbance 600 nm
Results filed as inconclusive are left out.
Exercise: for every item that follows, state its recorded max response.
// units = %; emit number, no label

May I ask what max response has been recorded for CC1(C)CC(=O)C2=C(C1)NC(Nc1nc3ccccc3o1)=NC2c1ccccc1 (stereo not given) ? 4.41

Quick check: max response of O=C1CCCC2=C1C1(CCCC1)N=C(Nc1nc3cc(Cl)ccc3o1)N2 ? -6.87

Given CC1(C)CC(=O)C2=C(C1)NC(Nc1nc3ccccc3o1)=NC2c1cccnc1 (stereo not given) , state its recorded max response. -12.6

Which value of max response has been reported for O=C1CCCC2=C1C1(CCCCC1)N=C(Nc1nc3ccccc3o1)N2 in the records? -4.16

Any idea what its max response is? The compound is CC1(C)CC(=O)C2=C(C1)NC(Nc1nc3ccccc3o1)=NC2c1cccc(Cl)c1 (stereo not given) -8.98

I would be grateful if you could share the reported max response for O=C1CCCC2=C1C1(CCCOC1)N=C(Nc1nc3ccccc3o1)N2 (stereo not given) . 1.73

Fill in: max response of O=C1CCCC2=C1C1(CCCC1)N=C(Nc1nc3cc(-c4ccccc4)ccc3o1)N2 is ___ -17.5

Return reported max response; argument: CC1(C)CC(=O)C2=C(C1)NC(Nc1nc3ccccc3o1)=NC21CCCC1 -0.364

Data request, read-out max response, for CC1CCC2(C1)N=C(Nc1nc3ccccc3o1)NC1=C2C(=O)CCC1 (stereo not given) 2.86

State the recorded max response for this entry: COc1ccc(C2N=C(Nc3nc4ccccc4o3)NC3=C2C(=O)CC(C)(C)C3)cc1 (stereo not given) -4.13

###

assay: Confirmatory Assay for Inhibitors of Human Galactokinase (GALK): Phenol-HRP redox assay counterscreen for probe SAR; details: Phenol red-HRP H2O2 redox cycling, absorbance 600 nm
Results filed as inconclusive are left out. Active and inactive are the calls of the source. Calls follow the shape of the dose curve; as a rule, active = well fitted curve in the direction sought with a large enough effect; inconclusive = small, poorly fitted or top-dose-only effect, or another doubt; inactive = no such curve, though single readings can be large or run the other way.
Record form. Attribute: max response. Fill in for each entry.

Entry O=C1CC(c2ccccc2)CC2=C1C1(CCCCC1)N=C(Nc1nc3ccccc3o1)N2 (configuration not stated) : reported max response = ? -19.3% (inactive)

I'd like to know its max response. The molecule in question is CCC1CCC2(C1)N=C(Nc1nc3ccccc3o1)NC1=C2C(=O)CCC1 (configuration not stated) 9.72% (inactive) [middle of 5 runs]

Looking for the measured max response of Cc1ccc2nc(NC3=NC4(CCCC4)C4=C(CCCC4=O)N3)oc2c1 , can you help? -9.86% (inactive)

max response for O=C1CCCC2=C1C1(CCSCC1)N=C(Nc1nc3ccccc3o1)N2 ? 3.32% (inactive)

Name the recorded max response for O=C1CCCC2=C1C1(CCS(=O)(=O)C1)N=C(Nc1nc3ccccc3o1)N2 (configuration not stated) . 7.09% (inactive)

So what's the measured max response for this one? O=C1CCCC2=C1C1(CCSC1)N=C(Nc1nc3ccccc3o1)N2 (configuration not stated) 9.11% (inactive)

Consider the molecule COc1cccc(C2N=C(Nc3nc4ccccc4o3)NC3=C2C(=O)CC(C)(C)C3)c1 (configuration not stated) and give its measured max response. -7.9% (inactive)

###

test: Confirmatory Assay for Inhibitors of Human Galactokinase (GALK): Phenol-HRP redox assay counterscreen for probe SAR; conditions: Phenol red-HRP H2O2 redox cycling, absorbance 600 nm
Records with an inconclusive call do not appear.
Quantity kind: max response (%)
All answers are understood in %, so give the number only.

Fill blank: measured max response of the compound CC1(C)CC(=O)C2=C(C1)NC(Nc1nc3ccccc3o1)=NC2c1ccccc1Cl (stereo not given) is ____. -4.5

What value of max response has been recorded for this entry: CC1(C)N=C(Nc2nc3ccccc3o2)NC2=C1C(=O)CCC2 -7.6

// returns reported max response for input Cc1ccc2oc(NC3=NC4(CCCC4)C4=C(CCCC4=O)N3)nc2c1 -13.5

# input compound: O=C1CCC2=C1C1(CCCC1)N=C(Nc1nc3ccccc3o1)N2 ; wanted: its max response -0.733

Look up max response for this compound: O=C1CCCC2=C1C(c1ccc(Cl)cc1)N=C(Nc1nc3ccccc3o1)N2 (stereo not given) 2.22
